Target: Human immunodeficiency virus type 1 reverse transcriptase (Human immunodeficiency virus 1)
Test: Inhibition of wild type HIV1 reverse transcriptase assessed as 32P-labeled GMP incorporation into nascent DNA strand
Hi! Could you tag entries with IC50 below 100 nM as TRUE, and those at or above as FALSE? Much appreciated.

Take a look at these entries with their results.
Cc1cc(C)cc(Oc2c(C(C)C)c(=O)[nH]c(=O)n2CC2CCC2)c1 :: FALSE
CCc1c(Oc2cc(C)cc(C)c2)n(CC2CCCC2)c(=O)[nH]c1=O :: FALSE
CCc1c(Oc2cc(C)cc(C)c2)n(CC2=CCCC2)c(=O)[nH]c1=O :: FALSE
CCc1c(Sc2cc(C)cc(C)c2)n(CCC2C=CCC2)c(=O)[nH]c1=O (centres undefined) :: FALSE
CCc1c(C(=O)c2cc(C)cc(C)c2)n(CC2=CCCC2)c(=O)[nH]c1=O :: TRUE

Input: Problem: For the molecule Cc1cc(C)cc(Oc2c(C(C)C)c(=O)[nH]c(=O)n2CC2CCCCC2)c1 , is IC50 under 100 nM?
Output: FALSE

Input: Please check: IC50 for CCc1c(Sc2cc(C)cc(C)c2)n(CC2CCCCC2)c(=O)[nH]c1=O , strictly under 100 nM or not?
Output: FALSE

Input: Quick check: does Cc1cc(C)cc(Sc2c(C(C)C)c(=O)[nH]c(=O)n2CC2=CCCC2)c1 have IC50 under 100 nM?
Output: TRUE

Input: Lab note: confirm whether the reported IC50 for this molecule is below 100 nM, equality not counting. molecule: Cc1cc(C)cc(Sc2c(C(C)C)c(=O)[nH]c(=O)n2CC2CCCCC2)c1
Output: FALSE

----------
Assay: Cytotoxicity against human HeLa cells expressing CD4-LTR by XTT assay
Format: cell-based
Settings: read-out: TC50 (the source's name)
This listing pairs molecules with measured CC50.
Your answer is read as µM, so omit the unit and give the number.

# count of solved cases: 3
CCc1c(C(=O)c2cc(C)cc(C)c2)n(CCC2C=CCC2)c(=O)[nH]c1=O (stereo unspecified) :: 92
Cc1cc(C)cc(Sc2c(C(C)C)c(=O)[nH]c(=O)n2CC2CC=CC2)c1 :: 23.2
CCc1c(C(=O)c2cc(C)cc(C)c2)n(CC2CC2)c(=O)[nH]c1=O :: 1210

Cc1cc(C)cc(Oc2c(C(C)C)c(=O)[nH]c(=O)n2CCC2CC=CC2)c1 has a reported CC50 of 14.2

molecule Cc1cc(C)cc(C(=O)c2cc(=O)[nH]c(=O)n2CC2CC=CC2)c1 , CC50 observed: 87.3

Lab note: Cc1cc(C)cc(Oc2c(C(C)C)c(=O)[nH]c(=O)n2CC2CCCCC2)c1 gave CC50 of 34.4

----------
Measured selectivity ratio, listed per entry for reference.
Test: Therapeutic index, ratio of TC50 for human CEM-SS cells to EC50 for HIV1 RF infected in human CEM-SS cells
Type: cell-based
Settings: read-out: TI
Keep the answer to the number alone.

Record excerpt, results attached:
Cc1cc(C)cc(C(=O)c2c(C(C)C)c(=O)[nH]c(=O)n2CC2CCCC2)c1 :: 5080
CCc1c(Sc2cc(C)cc(C)c2)n(CCC2CC=CC2)c(=O)[nH]c1=O :: 1030
CCc1c(Oc2cc(C)cc(C)c2)n(Cc2ccccc2)c(=O)[nH]c1=O :: 165000
CCc1c(Oc2cc(C)cc(C)c2)n(CC2CCC2)c(=O)[nH]c1=O :: 54200

selectivity ratio for CCc1c(C(=O)c2cc(C)cc(C)c2)n(CCC2=CCCC2)c(=O)[nH]c1=O is 20100

----------
System: Human immunodeficiency virus 2
Assay: Antiviral activity against HIV2 ROD infected in human CEM-SS cells assessed as inhibition of virus-induced cytopathic effect by XTT assay
Assay type: functional, organism-based, ISOLATE ROD
Details: Human immunodeficiency virus 2, ISOLATE ROD, CEM-SS; read-out: EC50
pEC50: −log10 of the molar value.
Hi, to clarify the labels: TRUE covers pEC50 from 6 upward, FALSE covers anything below 6.

Record excerpt, results attached:
CCc1c(Oc2cc(C)cc(C)c2)n(CC2CC=CC2)c(=O)[nH]c1=O :: FALSE
CCc1c(Sc2cc(C)cc(C)c2)n(CC2CCCC2)c(=O)[nH]c1=O :: FALSE

Input: Reported pEC50 at or above 6? Cc1cc(C)cc(C(=O)c2c(C(C)C)c(=O)[nH]c(=O)n2CC2CC=CC2)c1
Output: FALSE

Input: Evaluate Cc1cc(C)cc(C(=O)c2c(C(C)C)c(=O)[nH]c(=O)n2CC2CCCC2)c1 : pEC50 at minimum 6?
Output: TRUE

Input: Check the entry CCc1c(C(=O)c2ccccc2)n(CC2CC=CC2)c(=O)[nH]c1=O : does pEC50 equal or exceed 6?
Output: FALSE

Input: Reported pEC50 reaches at least 6 for Cc1cc(C)cc(C(=O)c2c(C(C)C)c(=O)[nH]c(=O)n2CC2CC2)c1 ?
Output: TRUE

----------
Biological target: Human immunodeficiency virus type 1 reverse transcriptase (Human immunodeficiency virus 1, UniProt Q72547, K103N)
Assay: Inhibition of HIV1 reverse transcriptase K103N mutant assessed as 32P-labeled GMP incorporation into nascent DNA strand
REPORTED_PROPERTY: IC50

Example entries and their recorded answers appear below.
CC(C)c1c(Sc2ccccc2)n(CC2CC=CC2)c(=O)[nH]c1=O :: > 292 µM
Cc1cc(C)cc(Sc2c(C(C)C)c(=O)[nH]c(=O)n2CC2CC=CC2)c1 :: > 270 µM
Cc1cc(C)cc(Sc2c(C(C)C)c(=O)[nH]c(=O)n2CC2CCCC2)c1 :: > 268 µM
Cc1cc(C)cc(Sc2c(C(C)C)c(=O)[nH]c(=O)n2CC2=CCCC2)c1 :: > 270 µM
Cc1cc(C)cc(Sc2c(C(C)C)c(=O)[nH]c(=O)n2CCC2=CCCC2)c1 :: > 260 µM

The recorded IC50 for CC(C)c1c(Oc2ccccc2)n(CC2CC=CC2)c(=O)[nH]c1=O is > 306 µM

compound CCc1c(Sc2cc(C)cc(C)c2)n(CC2CCCCC2)c(=O)[nH]c1=O , IC50 observed: > 268 µM

Entry CCc1c(C(=O)c2cc(C)cc(C)c2)n(CC2CCCCC2)c(=O)[nH]c1=O , IC50 reported as > 271 µM

----------
Test system: Human immunodeficiency virus 2
Assay: Antiviral activity against HIV2 ROD infected in human CEM-SS cells assessed as inhibition of virus-induced cytopathic effect by XTT assay
Type: functional, organism-based, ISOLATE ROD
Details: Human immunodeficiency virus 2, ISOLATE ROD, CEM-SS; read-out: EC50
Readings of pEC50 for the listed compounds
Interpret pEC50 as the negative base-10 log of the concentration measured in mol/L.

Cc1cc(C)cc(C(=O)c2c(C(C)C)c(=O)[nH]c(=O)n2CC2CCCCC2)c1 :: 6.15
CCc1c(C(=O)c2cc(C)cc(C)c2)n(CC2CCC2)c(=O)[nH]c1=O :: 5.35
CCc1c(Sc2cc(C)cc(C)c2)n(CC2=CCCC2)c(=O)[nH]c1=O :: 5.70
CCc1c(Oc2cc(C)cc(C)c2)n(CCC2CC=CC2)c(=O)[nH]c1=O :: 5.82
CCc1c(Oc2cc(C)cc(C)c2)n(CC2CC2)c(=O)[nH]c1=O :: 6.22
Cc1cc(C)cc(Sc2c(C(C)C)c(=O)[nH]c(=O)n2CCC2CC=CC2)c1 :: 5.21
Cc1cc(C)cc(Sc2c(C(C)C)c(=O)[nH]c(=O)n2CC2CC2)c1 :: 6.30
Cc1cc(C)cc(Oc2c(C(C)C)c(=O)[nH]c(=O)n2CC2CC2)c1 :: 6.30
CCc1c(C(=O)c2cc(C)cc(C)c2)n(CC2CCCCC2)c(=O)[nH]c1=O :: 5.52
Cc1cc(C)cc(Sc2c(C(C)C)c(=O)[nH]c(=O)n2CCC2C=CCC2)c1 (centres undefined) :: 5.32

CCc1c(Sc2cc(C)cc(C)c2)n(CCC2C=CCC2)c(=O)[nH]c1=O (centres undefined) has a reported pEC50 of 6.22

pEC50 for Cc1cc(C)cc(C(=O)c2c(C(C)C)c(=O)[nH]c(=O)n2CCC2C=CCC2)c1 (centres undefined) is 6.70

Form field pEC50, entry Cc1cc(C)cc(Oc2c(C(C)C)c(=O)[nH]c(=O)n2CCC2C=CCC2)c1 (centres undefined) : 6.40

The reported value for Cc1cc(C)cc(Sc2c(C(C)C)c(=O)[nH]c(=O)n2Cc2ccccc2)c1 in terms of pEC50 is 6.70

----------
Biological target: Human immunodeficiency virus type 1 reverse transcriptase (Human immunodeficiency virus 1, UniProt Q72547, K103N)
Assay: Inhibition of HIV1 reverse transcriptase K103N mutant assessed as 32P-labeled GMP incorporation into nascent DNA strand
pIC50: −log10 of the molar value.
pIC50 for assorted molecules

These solved cases illustrate the format of a correct answer.
Cc1cc(C)cc(C(=O)c2cc(=O)[nH]c(=O)n2CC2CC=CC2)c1 :: < 3.51
CCc1c(Sc2cc(C)cc(C)c2)n(CC2CCC2)c(=O)[nH]c1=O :: < 3.54
Cc1cc(C)cc(Sc2c(C(C)C)c(=O)[nH]c(=O)n2CCC2C=CCC2)c1 (stereo not given) :: < 3.59

The molecule listed as CCc1c(C(=O)c2cc(C)cc(C)c2)n(CCC2=CCCC2)c(=O)[nH]c1=O has a reported pIC50 of < 3.56

Form field pIC50, entry CC(C)c1c(C(=O)c2ccccc2)n(CC2CC=CC2)c(=O)[nH]c1=O : < 3.53

Every entry's value here was drawn from ChEMBL document CHEMBL1152465.
